Target: T1, human CD84 on cells (human) (UniProt Q9UIB8)
T1 sequence (looked up): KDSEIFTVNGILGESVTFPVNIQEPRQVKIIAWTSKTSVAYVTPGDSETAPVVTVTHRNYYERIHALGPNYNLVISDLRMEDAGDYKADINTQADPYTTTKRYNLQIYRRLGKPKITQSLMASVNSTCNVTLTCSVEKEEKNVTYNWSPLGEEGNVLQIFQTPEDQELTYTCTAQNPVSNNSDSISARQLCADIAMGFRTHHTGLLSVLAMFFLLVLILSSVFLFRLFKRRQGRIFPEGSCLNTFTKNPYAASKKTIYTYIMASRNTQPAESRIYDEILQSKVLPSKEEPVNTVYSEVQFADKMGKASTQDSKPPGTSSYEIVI
Assay: flow cytometry, hybridoma supernatant at equal antibody concentration, lymphocytes
Measured Lymphocyte binding, listed per entry for reference.
Expressed in %, but write only the number.

GYCD84.5.171 (antibody, mouse IgG1, V domains shown) VH: EVQLVESGGGLVQPKGSLKLACAASGFTFNIYAMNWVRQAPGKGLEWVARIRSKSNNYARFYADSVKDRFTISRDDSQSMLYLQMNNLKTEDTAMYYCVRPLRSYFSMDYWGQGTSVTVSS VL: SIVMTQSPKSMSMSVGERVTLSCKASENVDTYVSWYQQKPEQSPKLLIYGASNRYTGVPDRFTGSGSATDFTLTISSVKAEDLADYHCGQTYSYPWTFGGGTKLEIK ... 26.8

Would you kindly look at the next entry?
Exercise: Bench note: what Lymphocyte binding did GYCD84.2.32 (antibody, mouse IgG1, V domains shown) VH: EVQLQQSGPELEKPGASVKISCKASGYSFTGYNMNWVKQSNGKSLEWIGNIDPYYGGTNYNQKFKGKATLTVDKSSSTAYMQLKSLTSEDSAVYYCARGLLSGSFPYWGQGTLVTVSA VL: DIQMTQSPASLSASVGETVTITCRASENIYSYLAWYQQKQGKSPQLLVYNAKTLAEGVPSRFSGSGSGTQFSLKINSLHPEDFGSYFCQHHYGSPLTFGAGTKLEVK show?
Solution: 28.7
